Each recorded value in this set is attributed to patent US9611303B2.

test: Subunit association by FPLC on Sephacryl S-100HR; assay type: physicochemical; conditions: tetramer 44 to 47 mL, dimer 51 to 54 mL, monomer 63 to 66 mL
OUTCOME MEASURE: Sephacryl (mL), elution peak position
Your answer is read as mL, so omit the unit and give the number.

// known answers, use as guide
MOLECULE	Sephacryl (mL), elution peak position
TM2 T78A: TM2 in which the 78th threonine was replaced with alanine; SEQ ID NO: 10 (protein, Synthetic TM2 T78A) MSDVQSSLTGTWYNELNSKMELTANKDGTLTGKYLSKVGDVYVPYPLSGRYNLQPPAGQGVALGWAVSWENSKIHSAATWSGQFFSESSPVILTQWLLSSSTARGDVWESTLVGNDSFTKTAPTEQQIAHAQLHCRAPRLK	45.71
TM2 L97T-V113R: TM2 with 97th leucine replaced with threonine and 113th valine with arginine (protein) MSDVQSSLTGTWYNELNSKMELTANKDGTLTGKYLSKVGDVYVPYPLSGRYNLQPPAGQGVALGWAVSWENSKIHSATTWSGQFFSESSPVILTQWTLSSSTARGDVWESTLRGNDSFTKTAPTEQQIAHAQLHCRAPRLK	45.42

// switching to the query molecule
q: For the molecule TM2 W69K: TM2 in which the 69th tryptophan was replaced with lysine (protein) MSDVQSSLTGTWYNELNSKMELTANKDGTLTGKYLSKVGDVYVPYPLSGRYNLQPPAGQGVALGWAVSKENSKIHSATTWSGQFFSESSPVILTQWLLSSSTARGDVWESTLVGNDSFTKTAPTEQQIAHAQLHCRAPRLK , what Sephacryl (mL), elution peak position is on record?
a: 45.09
